Assay: Drug concentration in mouse brain at 2 mg/kg, po measured per gm of tissue
Type: ADME, organism-based
Conditions: in vivo

smiles.representation: Cc1ccc(S(=O)(=O)Nc2ccc(-c3c(F)cccc3N3CCCCC3)nn2)cc1
quantity.unit: ng/g
Ct: 79

* * *

Assay: Plasma concentration in cynomolgus monkey at 5 mg/kg, po measured after 2 hrs of administration
Type: ADME, organism-based, Macaca fascicularis
quantity.name: concentration at 2 h (ng/mL)

smiles.representation: O=C(O)c1cc(-c2ccc(Cl)c(OC3CC3)c2)ncn1
quantity.name: concentration at 2 h
quantity.unit: ng/mL
quantitative.readout: 15600

* * *

Test: Ratio of drug concentration in brain to plasma in mouse at 2 mg/kg, po
Assay type: ADME, organism-based
Details: read-out: BPR

smiles.representation: Cc1ccc(S(=O)(=O)Nc2ccc(-c3c(F)cccc3N3CCCCC3)nn2)cc1
Kp: 0.28
